molecular target: Mitogen-activated protein kinase 10 (Mus musculus); experiment: JNK3 AlphaScreen Assay (AID 530); conditions: JNK3 lysate, c-Jun phosphorylation; series mostly up to 57.1 µM;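 further: kinase came from lysate of stimulated human HepG2 cells; signal reports phosphorylation of biotinylated GST-cJun 1-79 at Ser73 with 10 µM ATP; on the % scale 0 is the no-effect control and ±100 the full control effect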
Records with an inconclusive call do not appear. Activity calls are given as the source filed them. The call rests on the fitted dose curve; in most records, active means well fitted curve in either direction with a large enough effect (not every such curve was filed as active); inconclusive means small, poorly fitted or top-dose-only effect, or another doubt; inactive means flat fitted curve, though single readings scatter.
measured_parameter: activity change, negative = inhibition

For orientation, consider the following solved cases.
C[C@]1(O)CC[C@H]2[C@@H]3[C@@H](O)CC4=CC(=O)CC[C@@]4(C)[C@H]3CC[C@]21C
-3.1% [at 11.4 µM] (inactive)
CCC[N+](=O)[O-]
inactive
N#CCCC#N
inactive
N#CC(Cl)(Cl)Cl
inactive

Quick one: activity change, negative = inhibition for "O=[As](O)(O)c1ccc(N=Nc2ccc(O)cc2)cc1" ? -2.48% [at 11.4 µM] (inactive)

Okay, and O=C(O)[C@H]1[O][Sb][O][C@@H](C(=O)O)C1O (some centres not stated) ? -2.33% [at 11.4 µM] (inactive)

Also "FC(F)(F)c1nc2ccc(SSc3ccc4nc(C(F)(F)F)[nH]c4c3)cc2[nH]1" ? 12.4% [at 11.4 µM] (inactive)

// next record "Clc1cc(Cl)c(Cl)c(Cl)c1" inactive

And then "Cc1cccc(C)c1N" , what is it? inactive

====

test: Cell Viability - H-4-II-E (AID 543); settings: H-4-II-E rat hepatoma viability; series mostly up to 92.2 µM;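 further: cells exposed to compound for 40 hours; nearly all actives have a fitted effect of over 35% in size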
Results filed as inconclusive are left out. Activity calls are given as the source filed them. The call rests on the fitted dose curve; in most records, active means well fitted cell-killing curve with a large enough effect; inconclusive means small, poorly fitted or top-dose-only effect; inactive means flat fitted curve, though single readings scatter.
Write down the outcome that applies. Available outcomes: t = active, f = inactive

Answered examples (4):
Nn1cnnc1
f
C/C=C/CC#N
f
c1ccc(NNc2ccccc2)cc1
f
COc1ccccc1N
f

For "c1ccc2c(c1)CCNC2" , which call appears in the assay record? f

Try this compound too: "COC(=O)Nc1nc2ccccc2[nH]1" t

Please answer likewise for "Clc1ccc(C(Cl)(Cl)Cl)cc1Cl" f

====

experiment: Cellular Toxicity (caspase-3) Hek293 (AID 664); details: HEK293 caspase-3 activation, DMSO = 0%, 100 µM tamoxifen = 100%; at 92.2 µM (top of the series);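 further: cells exposed to compound for 16 h at 37 °C before readout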
Results filed as inconclusive are left out.
measured_parameter: caspase-3 activation (%)
Unit % implied. Number only.

// worked examples, caspase-3 activation included
COC(=O)Nc1nc2ccccc2[nH]1
-4.59
O=C(O)C(Br)CBr (stereo not drawn)
1.8
FC(Cl)(Cl)Cl
-1.27
CCOC(=O)CBr
1.06
Cc1ccc(N)cc1Cl
0.465
ClCc1ccccn1
0.273

Return reported caspase-3 activation; argument: "COC(=O)c1ccccc1N" -1.69

Next: "CSSC" -3.42

Next up: "N#CC(Cl)(Cl)Cl" 1.68

Same thing, different molecule: "Oc1c(Cl)cccc1Cl" 1.84

====

assay: Cell Viability - LYMP2-006 (AID 978); details: LYMP2-006 lymphoblastoid cell viability, qHTS; series mostly up to 92.2 µM;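 further: cells exposed to compound for 24 hours; nearly all actives have a fitted effect of over 60% in size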
Inconclusive results are not listed. Active and inactive are the calls of the source. Calls come from the whole dose curve; as a rule, active = well fitted cell-killing curve with a large enough effect; inconclusive = small, poorly fitted or top-dose-only effect; inactive = flat fitted curve, though single readings scatter.
Reply using exactly one outcome from active, inactive

Completed entries (count: 5):
C=C(C)CCl
inactive
Oc1c(Cl)c(Cl)cc(Cl)c1Cl
inactive
Cc1cc(N=Nc2ccccc2C)ccc1N
inactive
ClCCOCCCl
inactive
Cc1cc(-c2ccc(N)c(C)c2)ccc1N
inactive

Hi, do you know how "NNC(N)=S" came out in this test? inactive

And then "CCCCOC(C)=O" , what is it? inactive

Continue with "Nc1c(Cl)cc([N+](=O)[O-])cc1Cl" inactive

Param item: O=C(O)C(Cl)Br (stereo not given) inactive

Record: "CCOP(=O)(OCC)OCC" inactive

What about this compound? "Brc1ccc(Oc2ccc(Br)cc2Br)c(Br)c1" inactive

Next: "BrCC(Br)(Br)Br" active

Next record, please: "Cc1ccc(N)cc1C" inactive

Note, next up: "N#C/C=C/C#N" active

Moving on to "ClCC(Cl)Cl" inactive

// repeat for "CCC#N" and report inactive

Then "C=CCO" ? inactive

Next up: "CCCCC#N" inactive

Then this compound: "Nc1ccc([N+](=O)[O-])cc1[N+](=O)[O-]" inactive

====

assay: AP1 Signaling Pathway (AID 357); settings: ME-180 (cervical carcinoma) AP-1-bla reporter, EGF-induced, beta-lactamase ratio, 5 h; at 7.69 µM (top of the series) unless noted;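 further: ME-180 reporter cells stimulated with EGF at its EC50 level; on the % scale 0 is the no-effect control and ±100 the full control effect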
Records with an inconclusive call do not appear. The source made the active and inactive calls. The call rests on the fitted dose curve; in most records, active means well fitted curve in either direction with a large enough effect (not every such curve was filed as active); inconclusive means small, poorly fitted or top-dose-only effect, or another doubt; inactive means flat fitted curve, though single readings scatter.
Each entry below carries its recorded activity change, negative = inhibition.

Known activity change, negative = inhibition results, listed for orientation:
NS(=O)(=O)C[C-]1C=C[CH]([Sb-]([Cl])([Cl])([Cl])([Cl])[Cl])C=C1.c1ccncc1 (stereo unspecified)
2.96% (inactive)
NCCSC(c1ccccc1)c1ccccc1
6.46% (inactive)
C[C@@H]1O[C@H]1P(=O)(O)O
0.559% [at 38 µM] (inactive)
N[C@H](Cn1cc(I)c(=O)[nH]c1=O)C(=O)O
10.7% [at 38 µM] (inactive)
C[N+]1(C)CCc2cc3c(cc2[C@@H]1[C@@H]1OC(=O)c2c1ccc1c2OCO1)OCO3
-3.72% [at 38 µM] (inactive)

Entry "CCC1(CCSC(=N)N)C(=O)NC(=O)NC1=O" : reported activity change, negative = inhibition = ? 6.2% (inactive)

====

target: Muscarinic acetylcholine receptor M1 (Rattus norvegicus) (UniProt P08482); experiment: qHTS Assay for Antagonists of Acetylcholine Muscarinic M1 Receptor: Kinetic Measurement of Intracellular Calcium Response (AID 943); settings: M1-expressing cells, kinetic intracellular calcium fluorescence; series mostly up to 35.3 µM; further: nearly all actives have a fitted effect of over 75% in size
Sequence (P08482 whole entry, looked up): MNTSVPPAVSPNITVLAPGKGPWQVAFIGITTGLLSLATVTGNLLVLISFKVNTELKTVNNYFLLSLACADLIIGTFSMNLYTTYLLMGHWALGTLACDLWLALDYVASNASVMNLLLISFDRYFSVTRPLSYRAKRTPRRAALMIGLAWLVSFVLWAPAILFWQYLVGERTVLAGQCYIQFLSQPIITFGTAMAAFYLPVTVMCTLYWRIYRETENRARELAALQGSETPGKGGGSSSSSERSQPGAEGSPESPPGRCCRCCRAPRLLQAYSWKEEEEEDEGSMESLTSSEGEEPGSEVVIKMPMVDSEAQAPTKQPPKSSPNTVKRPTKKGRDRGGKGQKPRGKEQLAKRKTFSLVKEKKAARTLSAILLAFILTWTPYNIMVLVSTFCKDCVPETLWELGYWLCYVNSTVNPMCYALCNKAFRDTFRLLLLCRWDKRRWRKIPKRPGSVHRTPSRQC
Inconclusive results are not listed. Activity calls are given as the source filed them. The call rests on the fitted dose curve; in most records, active means well fitted inhibition curve with a large enough effect; inconclusive means small, poorly fitted or top-dose-only effect; inactive means no such curve, though single readings can be large or run the other way.
Returns: one label drawn from active, inactive

Reference set (3 entries):
C[C@@H]1O[C@H]1P(=O)(O)O
inactive
O=C(O)[C@H]1[C@H](C(=O)O)[C@H]2CC[C@@H]1O2
inactive
CC(=O)OCC1=C(C(=O)[O-])N2C(=O)[C@@H](NC(=O)CCC[C@@H](N)C(=O)[O-])[C@@H]2SC1.[Zn+2]
inactive

Per the assay record, what outcome was assigned to "CC(C)N[C@@H](C)Cc1ccc(I)cc1" ? active

How about this compound: "COc1cc(C[C@H](C)N)c(OC)cc1I" active

Another compound to check: "CC(C)C[C@H](NP(=O)(O)O[C@@H]1O[C@@H](C)[C@@H](O)[C@@H](O)[C@H]1O)C(=O)N[C@@H](Cc1c[nH]c2ccccc12)C(=O)O" inactive

Another compound to look at: "CCN(CC)c1ncnc2c1ncn2[C@@H]1O[C@@H](COP(=O)(O)OP(=O)(O)C(Br)(Br)P(=O)(O)O)[C@H](O)[C@@H]1O" inactive

Please give the result for "N[C@H](Cn1ccc(=O)[nH]c1=O)C(=O)O" too. inactive

Same question, "C#CCN[C@@H](C)Cc1ccccc1" this time inactive

====

target: Vitamin D3 receptor (Homo sapiens) (UniProt P11473); experiment: qHTS assay for small molecule antagonists of vitamin D receptor signaling (AID 588541); conditions: HEK293T VDR-UAS-bla, beta-lactamase ratio, antagonist mode; series mostly up to 76.7 µM;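 further: receptor activated by calcitriol during compound treatment; on the % scale 0 is the no-effect control and ±100 the full control effect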
Sequence (P11473 whole entry, looked up): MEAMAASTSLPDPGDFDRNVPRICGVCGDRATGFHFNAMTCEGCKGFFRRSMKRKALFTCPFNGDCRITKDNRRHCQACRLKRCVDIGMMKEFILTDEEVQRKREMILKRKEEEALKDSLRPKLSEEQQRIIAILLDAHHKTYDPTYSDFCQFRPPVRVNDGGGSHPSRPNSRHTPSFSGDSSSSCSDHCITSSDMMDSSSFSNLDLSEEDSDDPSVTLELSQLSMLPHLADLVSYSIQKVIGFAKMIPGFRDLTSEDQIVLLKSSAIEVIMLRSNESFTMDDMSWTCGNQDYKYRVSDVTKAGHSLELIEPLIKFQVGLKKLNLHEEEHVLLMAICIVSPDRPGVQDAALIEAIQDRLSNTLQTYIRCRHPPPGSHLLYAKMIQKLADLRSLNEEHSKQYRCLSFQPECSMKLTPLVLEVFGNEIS
Inconclusive results are not listed. Active and inactive are the calls of the source. The call rests on the fitted dose curve.
measured_parameter: outcome

Example cases with answers are listed next.
CC(C)[N+](=O)[O-]
inactive
CC(=O)CCC(C)=O
inactive
O=C(O)CBr
inactive
C[N+](=O)[O-]
inactive
Cc1cc(-c2cc(C)c(N)c(C)c2)cc(C)c1N
inactive

Any idea what outcome was measured for "Cc1ccc(N)cc1Cl" ? inactive

Another: "Clc1cccc(Cl)c1" inactive

// next record "Oc1ccc(Cl)c(Cl)c1Cl" inactive

And then "O=Cc1ccc(Cl)cc1Cl" , what is it? inactive

Try the compound "O=P(OCCCl)(OCCCl)OCCCl" inactive

====

assay: Cell Viability - LYMP2-022 (AID 987); settings: LYMP2-022 lymphoblastoid cell viability; series mostly up to 92.2 µM;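 further: cells exposed to compound for 24 hr; 0% = DMSO alone and full effect = tetraoctylammonium bromide at 92 µM; nearly all actives have a fitted effect of over 55% in size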
Results filed as inconclusive are left out. Active and inactive are the calls of the source. Calls follow the shape of the dose curve; as a rule, active = well fitted cell-killing curve with a large enough effect; inconclusive = small, poorly fitted or top-dose-only effect; inactive = flat fitted curve, though single readings scatter.
Write down one outcome, taken from 1.0 = active, 0.0 = inactive

Returns: the outcome recorded for "OCCOCCO" in this assay. 0.0

Next up: "O=Cc1ccc(Cl)cc1Cl" 0.0

====

system: CP329; test: qHTS profiling for inhibitors of Plasmodium falciparum proliferation (AID 504749); further: nearly all actives have a fitted effect of over 60% in size; conditions: P. falciparum in erythrocytes, SYBR Green DNA, 72 h; series mostly up to 28.7 µM
Results filed as inconclusive are left out. The source made the active and inactive calls. The call rests on the fitted dose curve; in most records, active means well fitted inhibition curve with a large enough effect; inconclusive means small, poorly fitted or top-dose-only effect; inactive means flat fitted curve, though single readings scatter.
Respond only with the outcome that fits, drawn from T (active), F (inactive)

C[C@@H](Cc1ccc(O)cc1)NC[C@@H](O)c1cc(O)cc(O)c1
F
C=C[C@@H]1CN2CC[C@H]1C[C@H]2[C@H](O)c1ccnc2ccccc12
T
C[N+]1(C)C2CC[C@H]1CC(OC(=O)[C@@H](CO)c1ccccc1)C2 (some centres undefined)
F

We now examine a further compound.
Any idea what this test logged for C[N+]1([O-])[C@H]2CC[C@H]1CC(OC(=O)[C@@H](CO)c1ccccc1)C2 (some centres undefined) ? F
